tissue to tissue ratio at 24 h listing for selected molecules.
# Method summary: Ex vivo biodistribution in PC-3 tumor-bearing mice
# Condition details: male, NOD.Cg-Rag1^tm1Mom Il2rg^tm1Wjl/SzJ (NRG), mouse, tumor/muscle, total radioactivity, Tumor/muscle uptake ratio, 24 h post-injection
Numbered stars: 1 amine (or outer) side, 2 acyl side, 3 side chain; on linkers, the order of the positions; unused ones are H or OH. Square brackets hold non-standard residues; d marks the D form. Peptide text beside a SMILES is read from it. * marks the point of attachment. DOTA = O=C(O)CN1CCN(CC(=O)O)CCN(CC(=O)*)CCN(CC(=O)O)CC1; NMeH = CN[C@@H](Cc1c[nH]cn1)C(=O)O; X1 = O=C(CN1CCC(N[*:1])CC1)[*:2]; Tle = CC(C)(C)[C@H](N)C(=O)O; Thz = O=C(O)[C@@H]1CSCN1
Output: the number by itself.

[[record]]
molecule = "CC(C)C[C@H](NC(=O)[C@H](Cc1cnc[nH]1)N(C)C(=O)CNC(=O)[C@@H](NC(=O)[C@H](C)NC(=O)[C@H](Cc1c[nH]c2ccccc12)NC(=O)[C@H](CCC(N)=O)NC(=O)[C@@H](Cc1ccccc1)NC(=O)CN1CCC(NC(=O)CN2CCN(CC(=O)O)CCN(CC(=O)O)CCN(CC(=O)O)CC2)CC1)C(C)(C)C)C(=O)N1CSC[C@H]1C(N)=O [[^177Lu]Lu-LW01110, metal not drawn]"
result_value = 651


Proceed to the following item.
Reported tissue to tissue ratio at 24 h for CC(C)C[C@H](NC(=O)[C@H](Cc1cnc[nH]1)N(C)C(=O)CNC(=O)[C@@H](NC(=O)[C@H](C)NC(=O)[C@H](Cc1c[nH]c2ccccc12)NC(=O)[C@H](Cc1c[nH]cn1)NC(=O)[C@@H](Cc1ccccc1)NC(=O)CN1CCC(NC(=O)CN2CCN(CC(=O)O)CCN(CC(=O)O)CCN(CC(=O)O)CC2)CC1)C(C)(C)C)C(=O)N1CSC[C@H]1C(N)=O [[^177Lu]Lu-LW01142, metal not drawn] ({DOTA}-[X1][dF]HWA[Tle]G[NMeH]L[Thz]-NH2) was 672

----------
Reported tissue to tissue ratio at 24 h is given for each of the following molecules.
# Method summary: Ex vivo biodistribution in PC-3 tumor-bearing mice
# Condition details: male, NOD.Cg-Rag1^tm1Mom Il2rg^tm1Wjl/SzJ (NRG), mouse, tumor/blood, total radioactivity, Tumor/blood uptake ratio, 24 h post-injection
# Protocol: SPECT/CT imaging experiments were performed using an MILabs (Houten, The Netherlands) U-SPECT-II/CT scanner with a custom-made ultra-high-sensitivity big mouse collimator (2 mm pinhole size) following previously reported procedures. […] For ex vivo biodistribution studies, the mice were injected with ~2–6 MBq of the radioligand. […] Organs/tissues of interested were collected, weighed, and measured using an automatic gamma counter.
Numbered stars: 1 amine (or outer) side, 2 acyl side, 3 side chain; on linkers, the order of the positions; unused ones are H or OH. Square brackets hold non-standard residues; d marks the D form. Peptide text beside a SMILES is read from it. * marks the point of attachment. DOTA = O=C(O)CN1CCN(CC(=O)O)CCN(CC(=O)*)CCN(CC(=O)O)CC1; NMeH = CN[C@@H](Cc1c[nH]cn1)C(=O)O; X1 = O=C(CN1CCC(N[*:1])CC1)[*:2]; Tle = CC(C)(C)[C@H](N)C(=O)O; Thz = O=C(O)[C@@H]1CSCN1
// print number alone

[[record]]
molecule = "CC(C)C[C@H](NC(=O)[C@H](Cc1cnc[nH]1)N(C)C(=O)CNC(=O)[C@@H](NC(=O)[C@H](C)NC(=O)[C@H](Cc1c[nH]c2ccccc12)NC(=O)[C@H](Cc1c[nH]cn1)NC(=O)[C@@H](Cc1ccccc1)NC(=O)CN1CCC(NC(=O)CN2CCN(CC(=O)O)CCN(CC(=O)O)CCN(CC(=O)O)CC2)CC1)C(C)(C)C)C(=O)N1CSC[C@H]1C(N)=O [[^177Lu]Lu-LW01142, metal not drawn] ({DOTA}-[X1][dF]HWA[Tle]G[NMeH]L[Thz]-NH2)"
result_value = 841


Notebook: CC(C)C[C@H](NC(=O)[C@H](Cc1cnc[nH]1)N(C)C(=O)CNC(=O)[C@@H](NC(=O)[C@H](C)NC(=O)[C@H](Cc1c[nH]c2ccccc12)NC(=O)[C@H](CCC(N)=O)NC(=O)[C@@H](Cc1ccccc1)NC(=O)CN1CCC(NC(=O)CN2CCN(CC(=O)O)CCN(CC(=O)O)CCN(CC(=O)O)CC2)CC1)C(C)(C)C)C(=O)N1CSC[C@H]1C(N)=O [[^177Lu]Lu-LW01110, metal not drawn] , tissue to tissue ratio at 24 h read as 1220
